Provide the reported TGI of each item.
- Test system: LOX IMVI melanoma
- PROTOCOL DETAILS: NCI tumour cell line growth inhibition, 48 h

Prompt: Write down measured TGI (LOX IMVI melanoma) for this compound. Cc1ccc(/C=C2\CN(C)CC3=C2NC(=S)NC3c2ccc(C)cc2)cc1 (stereo not given)
Response: > 100 µM

Prompt: Report its TGI with LOX IMVI melanoma as the test system: Nc1nonc1-c1nc2cnccc2n1C1CCCCC1
Response: > 25 µM

Prompt: State, for LOX IMVI melanoma, measured TGI of the compound listed here: O=C(C=P(c1ccccc1)(c1ccccc1)c1ccccc1)CC(=S)CC(=O)C=P(c1ccccc1)(c1ccccc1)c1ccccc1
Response: > 100 µM

Prompt: Under LOX IMVI melanoma, report TGI for CCOC(=O)Nn1cnnc1C
Response: > 100 µM

Prompt: Under LOX IMVI melanoma, report TGI for CC(=O)NCCC1CN(C(=O)/C=C\I)c2ccccc21 (stereo not given)
Response: 11.1 µM

Prompt: Enter recorded TGI with LOX IMVI melanoma for O=C1OC(c2ccc(O)c(F)c2)(c2ccc(O)c(F)c2)c2cccc3cccc1c23 here.
Response: > 25 µM

Prompt: Jot down TGI (LOX IMVI melanoma) of C/C(O)=c1\cc(C#N)c(=C(C#N)C#N)nc1C .
Response: > 100 µM

Prompt: Print LOX IMVI melanoma TGI for O=C(/C=C/c1cccc(O)c1)c1cccc(-n2cc(-c3ccc(Cl)cc3)[nH]c2=O)c1 .
Response: 3.11 µM

Prompt: Would you please give the reported TGI of C[Si](C)(C)/N=C1\N2C(=NC1(C(F)(F)F)C(F)(F)F)Sc1ccccc12 with LOX IMVI melanoma?
Response: > 50 µM

Prompt: Tell me its TGI on LOX IMVI melanoma: O=C(O)CCC(N=C(C(=NC(CCC(=O)O)C(=O)O)c1ccccc1)c1ccccc1)C(=O)O (stereo not given)
Response: > 100 µM

----------
Kindly supply the reported TGI values for the records listed here.
- Test system: M14 melanoma
- PROTOCOL DETAILS: NCI tumour cell line growth inhibition, 48 h
Where a SMILES comes first, the peptide text is derived from it. Bridges are numbered along the chain shown (N, C = ends). [ ]: non-standard residue; d: D form. The star is where a group is joined. Cya = N[CH](CS(=O)(=O)O)C(=O)O; X49 = CC(C)CCCCCCCC(O)CC(=O)*; GABA = NCCCC(=O)O

Prompt: Please report the measured TGI for Cc1cn(C(=O)NC23CC4CC(CC(C4)C2)C3)c(=O)[nH]c1=O
Response: > 100 µM

Prompt: Report TGI, nothing else, for this compound: O=C(O)c1ccc(C=C2Sc3ccccc3S2)cc1
Response: > 100 µM

Prompt: Determine its reported TGI: COC(=O)CCC(NC(=S)N/N=C(\C)c1ccco1)C(=O)OC (stereo unspecified)
Response: > 100 µM

Prompt: Report TGI, nothing else, for this compound: O=C(CCc1ccc(O)cc1)NCCc1cccc(O)c1
Response: > 50 µM

Prompt: Using known records, supply TGI for COC(=O)c1c(O)ccc2c1c1c(n2CCc2ccccc2)C(=O)c2ccccc2C1=O
Response: 30.3 µM

Prompt: Answer with the recorded TGI of Cc1ccc(N=Nc2c(-c3ccccc3)nn(C(=O)CC(=O)Nc3ccc(Cl)cc3)c2-c2ccccc2)cc1 only.
Response: > 100 µM

Prompt: Indicate the recorded TGI value for this compound: CC(C)CCCCCCCC(O)CC(=O)NC(CS(=O)(=O)O)C(=O)NC(CC(C)C)C(=O)NCCCC(=O)NC(Cc1cnc[nH]1)C(=O)NC(C)C(=O)NC1C(=O)NC(C(C)O)C(=O)NC(Cc2cnc[nH]2)C(=O)NC(C)C(=O)NC(C(C)O)C(=O)OC1C (stereo unspecified) (X49-[Cya]L[GABA]HATTHAT; ester 6-C; configuration not given here)
Response: > 25 µM

Prompt: Specify TGI for NC(C(=O)O)c1cc(=O)[nH]o1 (stereo unspecified) and stop.
Response: > 100 µM

Prompt: Could you please provide reported TGI for COc1ccc(C2C(C#N)=C(N)Oc3c2sc2c(C)cccc32)cc1 (stereo unspecified) ? Thanks!
Response: 13.4 µM

Prompt: Give the reported value of TGI for this record: O=C1OC(c2cccc(C(F)(F)F)c2)(c2cccc(C(F)(F)F)c2)c2ccc3ccccc3c21
Response: > 100 µM

Prompt: Identify measured TGI associated with CC(C)=C1C(=O)c2c(Cl)sc(Cl)c2C1=O
Response: 37.9 µM

Prompt: Please supply the value of reported TGI for the item C=C(CN1CCc2ccccc2C1)c1ccc(CCC(=O)Nc2ccccc2N)cc1
Response: 34.3 µM

Prompt: Return the recorded TGI value; entry: CCOC(=O)Nc1nc2cc(OC)c(OC)c(OC)c2s1
Response: > 100 µM

Prompt: State its TGI for this compound: COc1ccc(C2c3c(n(C)c(=O)n(C)c3=O)OC(N(C)C)(N(C)C)C2(F)F)cc1 (stereo unspecified)
Response: > 100 µM

Prompt: Given O=C(/C=C/c1cccc(O)c1)c1cccc(-n2cc(-c3ccc(Cl)cc3)[nH]c2=O)c1 , respond with its TGI.
Response: 4.44 µM

Prompt: Identify measured TGI associated with O=C(CC(=O)Nc1ccc(C(=O)O)cc1)Nc1ccc(C(=O)O)cc1
Response: > 100 µM

Prompt: Name the recorded TGI of the compound listed here: O=C1C=C(Nc2ccc([N+](=O)[O-])cc2)c2ccccc2C1=O
Response: 16.7 µM

Prompt: Return TGI (reported value) for this compound: COc1ccc(/C=C/C(=O)c2ccc(NC(=O)CSc3nnc(-c4ccc(OC)c(OC)c4)n3-c3ccccc3)cc2)cc1
Response: 3.9 µM

Prompt: For the compound CCOC(=O)C1=NC(c2ccccc2)(c2ccccc2)OC1=C(Cl)Cl , report TGI.
Response: > 100 µM

Prompt: For the compound COc1ccc(-c2c3ccccc3c(-c3ccc(OCCBr)cc3)c3ccccc23)cc1 , give its measured TGI value.
Response: > 100 µM

Prompt: Report TGI for NC(=Nc1ccc(Cl)cc1)c1ccccc1N
Response: > 100 µM

Prompt: Return reported TGI. Input compound: C=C1CC(Cn2cc(C)c(=O)[nH]c2=O)(c2ccc(Cl)cc2)OC1=O (stereo unspecified)
Response: 2.54 µM

Prompt: # return recorded TGI for entry O=C(O)CCC(N=C(C(=NC(CCC(=O)O)C(=O)O)c1ccccc1)c1ccccc1)C(=O)O (stereo unspecified)
Response: > 100 µM

Prompt: Supply recorded TGI for CCCCCCC[CH2][Sn]([Cl])([Cl])[CH2]CCCCCCC here.
Response: 19.5 µM

Prompt: Provide only the value of recorded TGI for COC(=O)/C(=C(\C)NC(C)=O)c1c(C(=O)OC)[nH]c2ccccc12
Response: > 100 µM

Prompt: Please list TGI recorded for the compound CCc1nc(N)nc(N)c1-c1ccc2c(c1)nnn2CCc1ccccc1
Response: > 65.9 µM

Prompt: Fill in reported TGI for this entry: CC1=NN(C2=NS(=O)(=O)c3ccccc3N2C)C(=O)C1
Response: > 100 µM

Prompt: Could you please provide reported TGI for CCc1cccc(CC)c1NC(=O)C(=O)Cc1nc2ccccc2o1 ? Thanks!
Response: > 100 µM

Prompt: Query TGI for Cc1ccc2c(c1)c(C1=C(c3cn(C)c4ccccc34)C(=O)NC1=O)cn2C
Response: > 25 µM

Prompt: Input CSC(N)=Nc1cccc2ccccc12 , output reported TGI.
Response: > 10 µM

Prompt: Provide one value: measured TGI of COC(=O)c1cc(CC2Cc3cc4c(cc3C2)CCC4)cc2c1CCC2
Response: > 100 µM

Prompt: Indicate its recorded TGI; the compound in question is CCOC(=O)C1=CC(C)(C(=O)OCC)Nc2c(nc(SC)[nH]c2=O)N1 (stereo unspecified)
Response: > 10 µM

Prompt: Item N#Cc1nc(-c2ccccc2C(=O)O)oc1N : provide TGI
Response: > 100 µM

Prompt: Quick one: give measured TGI for COc1ccc(CN=C2N/C(=C\c3ccccc3Cl)C(=O)N2C)cc1
Response: 36.2 µM

Prompt: Look up and state reported TGI for CC(C)OC(=O)Nc1ccc(-c2nc(-c3cccc(OCCN4CCOCC4)c3)c(-c3ccnc(Br)c3)[nH]2)cc1
Response: 11.7 µM

Prompt: // fetch TGI given entry O=C1C[C@@H](c2ccc(O)cc2)[C@@]2(O1)C(=O)O[C@H]([C@@H](O)CO)[C@@H]2O
Response: > 100 µM

Prompt: For the compound CN(C)CCCNc1c2c(nc3ccc(Cl)cc13)CCCC2 , report TGI.
Response: 28.1 µM

Prompt: Provide measured TGI value, entry: COC(=O)C(=Cc1ccccc1[N+](=O)[O-])C(=O)OC
Response: 14 µM

Prompt: Give the reported TGI for this compound. C=CCSSC1N=CNc2nc[nH]c21 (stereo unspecified)
Response: 18.6 µM

Prompt: Tell me its TGI given Cc1ccc2cc3c(N)c4c(C)ccc(C)c4nc3nc2c1 as the entry.
Response: 26.7 µM

Prompt: Read the entry CCCCCC(=O)n1[nH]c(=O)n(-c2ccc(OC)cc2)c1=O and write its reported TGI.
Response: > 100 µM
